# Tested on: cancer cell lines from the cancer cell line encyclopedia (CCLE)
# protocol.details: Cell line profiling (CLiP) proliferation experiment
# Format: cell-based
# condition.description: Homo sapiens, SNU1, SNU-1 (stomach); read-out: Inflection Point
pEC50: −log10 of the molar value.
test.readout: pEC50

compound="CC(C)[C@@]12C[C@@H](O)[C@@](C)(O1)[C@@H]1CC[C@@H](C)[C@H]1[C@@H]2OC(=O)/C=C/c1ccccc1 [Englerin B]" quantitative_result=4.92

* * *

# Test system: cancer cell lines from the cancer cell line encyclopedia (CCLE)
# protocol.details: Cell line profiling (CLiP) proliferation experiment
# Type: cell-based
# condition.description: Homo sapiens, NCI-H1581, NCI-H1581 cells; read-out: Inflection Point
test.readout: EC50 (µM)

molecule="CC(C)[C@@]12C[C@@H](O)[C@@](C)(O1)[C@@H]1CC[C@@H](C)[C@H]1[C@@H]2OC(=O)/C=C/c1ccccc1 [Englerin B]" quantitative_result=15.4

* * *

# Test system: cancer cell lines from the cancer cell line encyclopedia (CCLE)
# protocol.details: Cell line profiling (CLiP) proliferation experiment
# Format: cell-based
# condition.description: Homo sapiens, CAKI-2, cell line Caki-2; kidney; clear_cell_renal_cell_carcinoma; read-out: Crossing Point
test.readout: IC50

compound="CC(C)[C@@]12C[C@@H](O)[C@@](C)(O1)[C@@H]1CC[C@@H](C)[C@H]1[C@@H]2OC(=O)/C=C/c1ccccc1 [Englerin B]" result="> 30 µM"

* * *

# Test system: cancer cell lines from the cancer cell line encyclopedia (CCLE)
# protocol.details: Cell line profiling (CLiP) proliferation experiment
# Type: cell-based
# condition.description: SH-4 (skin); read-out: Crossing Point
pIC50: −log10 of the molar value.
test.readout: pIC50

compound="CC(C)[C@@]12C[C@@H](O)[C@@](C)(O1)[C@@H]1CC[C@@H](C)[C@H]1[C@@H]2OC(=O)/C=C/c1ccccc1 [Englerin B]" result="< 4.52"

* * *

# Test system: cancer cell lines from the cancer cell line encyclopedia (CCLE)
# protocol.details: Cell line profiling (CLiP) proliferation experiment
# Type: cell-based
# condition.description: Homo sapiens, HuH-1, cell line huH-1, liver; read-out: Inflection Point
pEC50: −log10 of the molar value.
test.readout: pEC50

substance_smiles=CC(C)[C@@]12C[C@@H](O)[C@@](C)(O1)[C@@H]1CC[C@@H](C)[C@H]1[C@@H]2OC(=O)/C=C/c1ccccc1 test_readout=pEC50 quantitative_result=5.12

* * *

# System: cancer cell lines from the cancer cell line encyclopedia (CCLE)
# protocol.details: Cell line profiling (CLiP) proliferation experiment
# Type: cell-based
# condition.description: Homo sapiens, Calu-6, Calu-6, lung, undifferentiated_carcinoma; read-out: Inflection Point
test.readout: EC50 (µM)

substance_smiles=CC(C)[C@@]12C[C@@H](O)[C@@](C)(O1)[C@@H]1CC[C@@H](C)[C@H]1[C@@H]2OC(=O)/C=C/c1ccccc1 measurement_units=µM quantitative_result=11.6

* * *

# Test system: cancer cell lines from the cancer cell line encyclopedia (CCLE)
# protocol.details: Cell line profiling (CLiP) proliferation experiment
# Assay type: cell-based
# condition.description: Homo sapiens, NCI-H3255, NCI-H3255, lung, adenocarcinoma; read-out: Crossing Point
test.readout: IC50

substance_smiles=CC(C)[C@@]12C[C@@H](O)[C@@](C)(O1)[C@@H]1CC[C@@H](C)[C@H]1[C@@H]2OC(=O)/C=C/c1ccccc1 test_readout=IC50 result="27 µM"

* * *

# Test system: cancer cell lines from the cancer cell line encyclopedia (CCLE)
# protocol.details: Cell line profiling (CLiP) proliferation experiment
# Format: cell-based
# condition.description: Loucy (haematopoietic_and_lymphoid_tissue); read-out: Crossing Point
test.readout: IC50 (µM)

substance_smiles=CC(C)[C@@]12C[C@@H](O)[C@@](C)(O1)[C@@H]1CC[C@@H](C)[C@H]1[C@@H]2OC(=O)/C=C/c1ccccc1 measurement_units=µM quantitative_result=13.6

* * *

# System: cancer cell lines from the cancer cell line encyclopedia (CCLE)
# protocol.details: Cell line profiling (CLiP) proliferation experiment
# Format: cell-based
# condition.description: Homo sapiens, NCI-H650, NCI-H650 cells; read-out: Inflection Point
test.readout: EC50 (µM)

compound="CC(C)[C@@]12C[C@@H](O)[C@@](C)(O1)[C@@H]1CC[C@@H](C)[C@H]1[C@@H]2OC(=O)/C=C/c1ccccc1 [Englerin B]" quantitative_result=15.8

* * *

# System: cancer cell lines from the cancer cell line encyclopedia (CCLE)
# protocol.details: Cell line profiling (CLiP) proliferation experiment
# Type: cell-based
# condition.description: Homo sapiens, IMR-32, IMR-32 cells; read-out: Crossing Point
pIC50: −log10 of the molar value.
test.readout: pIC50

substance_smiles=CC(C)[C@@]12C[C@@H](O)[C@@](C)(O1)[C@@H]1CC[C@@H](C)[C@H]1[C@@H]2OC(=O)/C=C/c1ccccc1 study_system="cancer cell lines from the cancer cell line encyclopedia (CCLE)" quantitative_result=4.62

* * *

# System: cancer cell lines from the cancer cell line encyclopedia (CCLE)
# protocol.details: Cell line profiling (CLiP) proliferation experiment
# Type: cell-based
# condition.description: Homo sapiens, OVSAHO, OVSAHO cells; read-out: Inflection Point
test.readout: EC50 (µM)

substance_smiles=CC(C)[C@@]12C[C@@H](O)[C@@](C)(O1)[C@@H]1CC[C@@H](C)[C@H]1[C@@H]2OC(=O)/C=C/c1ccccc1 study_system="cancer cell lines from the cancer cell line encyclopedia (CCLE)" quantitative_result=18.1

* * *

# Tested on: cancer cell lines from the cancer cell line encyclopedia (CCLE)
# protocol.details: Cell line profiling (CLiP) proliferation experiment
# Type: cell-based
# condition.description: A4/Fuk cells; read-out: Inflection Point
pEC50: −log10 of the molar value.
test.readout: pEC50

substance_smiles=CC(C)[C@@]12C[C@@H](O)[C@@](C)(O1)[C@@H]1CC[C@@H](C)[C@H]1[C@@H]2OC(=O)/C=C/c1ccccc1 quantitative_result=4.74

* * *

# Tested on: cancer cell lines from the cancer cell line encyclopedia (CCLE)
# protocol.details: Cell line profiling (CLiP) proliferation experiment
# Assay type: cell-based
# condition.description: Homo sapiens, SU-DHL-8, SU-DHL-8 (haematopoietic_and_lymphoid_tissue, diffuse_large_B_cell_lymphoma); read-out: Crossing Point
pIC50: −log10 of the molar value.
test.readout: pIC50

substance_smiles=CC(C)[C@@]12C[C@@H](O)[C@@](C)(O1)[C@@H]1CC[C@@H](C)[C@H]1[C@@H]2OC(=O)/C=C/c1ccccc1 quantitative_result=4.84

* * *

# Tested on: cancer cell lines from the cancer cell line encyclopedia (CCLE)
# protocol.details: Cell line profiling (CLiP) proliferation experiment
# Assay type: cell-based
# condition.description: cell line EN, endometrium; read-out: Crossing Point
test.readout: IC50

compound="CC(C)[C@@]12C[C@@H](O)[C@@](C)(O1)[C@@H]1CC[C@@H](C)[C@H]1[C@@H]2OC(=O)/C=C/c1ccccc1 [Englerin B]" test_readout=IC50 result="> 30 µM"

* * *

# Test system: cancer cell lines from the cancer cell line encyclopedia (CCLE)
# protocol.details: Cell line profiling (CLiP) proliferation experiment
# Assay type: cell-based
# condition.description: Homo sapiens, NCI-H3255, NCI-H3255, lung, adenocarcinoma; read-out: Inflection Point
test.readout: EC50 (µM)

compound="CC(C)[C@@]12C[C@@H](O)[C@@](C)(O1)[C@@H]1CC[C@@H](C)[C@H]1[C@@H]2OC(=O)/C=C/c1ccccc1 [Englerin B]" measurement_units=µM quantitative_result=27

* * *

# Test system: cancer cell lines from the cancer cell line encyclopedia (CCLE)
# protocol.details: Cell line profiling (CLiP) proliferation experiment
# Format: cell-based
# condition.description: Homo sapiens, NUGC-3, NUGC-3, stomach, NS; read-out: Crossing Point
test.readout: IC50

substance_smiles=CC(C)[C@@]12C[C@@H](O)[C@@](C)(O1)[C@@H]1CC[C@@H](C)[C@H]1[C@@H]2OC(=O)/C=C/c1ccccc1 study_system="cancer cell lines from the cancer cell line encyclopedia (CCLE)" test_readout=IC50 result="> 30 µM"

* * *

# Test system: cancer cell lines from the cancer cell line encyclopedia (CCLE)
# protocol.details: Cell line profiling (CLiP) proliferation experiment
# Format: cell-based
# condition.description: Homo sapiens, HCC1428, cell line HCC1428; read-out: Crossing Point
# Experimental: Compound profiling experiment and data analysis was performed as previously described. Data was imported and plotted using the Tibco Spotfire DXP application. Lines were categorized as sensitive, intermediate and refractory as follows: Amax<-40 & Inflection Point <2 ~ Sensitive, Amax>-20 & Inflection Point >10 ~ Refractory, all else were called Intermediate. Cancer Cell line HG-U133 Plus 2 data was processed and normalized as described. […]
pIC50: −log10 of the molar value.
test.readout: pIC50

compound="CC(C)[C@@]12C[C@@H](O)[C@@](C)(O1)[C@@H]1CC[C@@H](C)[C@H]1[C@@H]2OC(=O)/C=C/c1ccccc1 [Englerin B]" result="< 4.52"

* * *

# Test system: cancer cell lines from the cancer cell line encyclopedia (CCLE)
# protocol.details: Cell line profiling (CLiP) proliferation experiment
# Assay type: cell-based
# condition.description: Homo sapiens, SK-N-SH, cell line SK-N-SH, autonomic_ganglia; read-out: Inflection Point
test.readout: EC50 (µM)

substance_smiles=CC(C)[C@@]12C[C@@H](O)[C@@](C)(O1)[C@@H]1CC[C@@H](C)[C@H]1[C@@H]2OC(=O)/C=C/c1ccccc1 measurement_units=µM quantitative_result=7.74
